Reported values of IC50 for individual entries
target: MST1 (Homo sapiens (Human), UniProt Q13043); assay: MST1 biochemical LanthaScreen Eu Kinase Binding Assay; conditions: read-out: Kinase Binding assay-MST1 IC50
Sequence (Q13043 whole entry): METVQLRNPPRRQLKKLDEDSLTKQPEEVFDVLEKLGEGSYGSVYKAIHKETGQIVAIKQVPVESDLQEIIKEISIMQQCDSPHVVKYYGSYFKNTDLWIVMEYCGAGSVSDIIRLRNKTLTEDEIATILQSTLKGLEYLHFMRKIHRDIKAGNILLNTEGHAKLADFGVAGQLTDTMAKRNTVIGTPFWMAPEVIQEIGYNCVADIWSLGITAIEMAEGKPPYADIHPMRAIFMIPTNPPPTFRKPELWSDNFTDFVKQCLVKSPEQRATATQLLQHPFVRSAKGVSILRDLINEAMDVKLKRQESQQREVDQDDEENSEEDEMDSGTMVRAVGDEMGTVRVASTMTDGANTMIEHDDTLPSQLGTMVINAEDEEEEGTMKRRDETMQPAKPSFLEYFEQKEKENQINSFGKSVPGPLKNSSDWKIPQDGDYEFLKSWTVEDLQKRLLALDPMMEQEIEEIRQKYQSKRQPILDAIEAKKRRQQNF

Example compounds with recorded IC50:
• CCOc1cc2ncc(C#N)c(Nc3ccc(OCc4ncccc4C)c(OC)c3)c2cc1NC(=O)/C=C/CN(C)C = < 100 nM
• CCOc1cc2ncc(C#N)c(Nc3cc(Cl)c(OCc4ncccc4C)c(Cl)c3)c2cc1NC(=O)CCCN(C)C = < 100 nM
• CCOc1cc2ncc(C#N)c(Nc3ccc(OCc4ccccn4)cc3)c2cc1NC(=O)CCCN(C)C = 100 to 1000 nM

# return recorded IC50 for entry "CCOc1cc2ncc(C#N)c(Nc3ccc(Cl)cc3)c2cc1NC(C)=O"
1000 to 10000 nM

Identify measured IC50 corresponding to "CCOc1cc2ncc(C#N)c(Nc3cc(Cl)c(OCc4ncccc4C)cc3Cl)c2cc1NC(=O)CCCN(C)C"
< 100 nM
